target: recombinant human GAA (acid alpha-glucosidase) (Homo sapiens, UniProt P10253); assay: Acid alpha-glucosidase (GAA) assay (4-methylumbelliferyl-alpha-D-pyranoside substrate, fluorescence)
pIC50: −log10 of the molar value.
Criterion: pIC50 meeting or surpassing 7. Met: class 1. Not met: class 0.

>>> class("[N-]=[N+]=Nc1ccc(NCCc2cc(CCN3C[C@H](O)[C@@H](O)[C@H](O)[C@H]3CO)cc(C3CCCCC3)c2)c([N+](=O)[O-])c1 [Compound 1115]")
"class 0"
>>> class("[N-]=[N+]=Nc1ccc(NCc2ccc(-c3ccc(CN4C[C@H](O)[C@@H](O)[C@H](O)[C@H]4CO)cc3)cc2)c([N+](=O)[O-])c1 [Compound 1166]")
"class 0"
>>> class("Cc1cc(NCc2cccc(CN3C[C@H](O)[C@@H](O)[C@H](O)[C@H]3CO)c2)cc(C2=COCCO2)c1 [Compound 1032]")
"class 0"
>>> class("OC[C@@H]1[C@@H](O)[C@H](O)[C@@H](O)CN1Cc1cccc(CNc2cc(-c3ncccn3)cc(C3CC3)c2)n1 [Compound 1333]")
"class 0"
>>> class("[N-]=[N+]=Nc1ccc(NCCOCCN2C[C@H](O)[C@@H](O)[C@H](O)[C@H]2CO)c([N+](=O)[O-])c1 [Compound 1255]")
"class 0"
>>> class("[N-]=[N+]=Nc1ccc(NCCc2ccc(CCN3C[C@H](O)[C@@H](O)[C@H](O)[C@H]3CO)s2)c([N+](=O)[O-])c1 [Compound 1186]")
"class 0"
>>> class("CS(=O)(=O)c1cc(NCc2ccc(CN3C[C@H](O)[C@@H](O)[C@H](O)[C@H]3CO)cc2)cc(N2CCOCC2)c1 [Compound 1054]")
"class 0"
>>> class("CN(C)Cc1ccc(NCCCCCCN2C[C@H](O)[C@@H](O)[C@H](O)[C@H]2CO)c(F)c1 [Compound 1236]")
"class 0"
>>> class("[N-]=[N+]=Nc1ccc(NCCN2CC(OCCN3C[C@H](O)[C@@H](O)[C@H](O)[C@H]3CO)C2)c([N+](=O)[O-])c1 [Compound 1271]")
"class 0"
>>> class("[N-]=[N+]=Nc1ccc(NCCCCCCN2C[C@H](O)[C@@H](O)[C@H](O)[C@H]2CO)c(C(=O)O)c1 [Compound 1297]")
"class 0"
>>> class("N#Cc1ccc(NCCCCCCN2C[C@H](O)[C@@H](O)[C@H](O)[C@H]2CO)c([N+](=O)[O-])c1 [Compound 1304]")
"class 1"
>>> class("Cc1cc(NCc2ccc(CN3C[C@H](O)[C@@H](O)[C@H](O)[C@H]3CO)cc2)cc(-c2ccco2)c1 [Compound 1317]")
"class 0"
>>> class("N#Cc1cc(Br)cc(NCc2cccc(CN3C[C@H](O)[C@@H](O)[C@H](O)[C@H]3CO)c2)c1 [Compound 1023]")
"class 0"
>>> class("[N-]=[N+]=Nc1ccc(NCC[C@H]2CC[C@@H](CCN3C[C@H](O)[C@@H](O)[C@H](O)[C@H]3CO)CC2)c([N+](=O)[O-])c1 [Compound 1106]")
"class 1"
>>> class("N#Cc1cc(NCc2cccc(CN3C[C@H](O)[C@@H](O)[C@H](O)[C@H]3CO)c2)cc(-c2ccc[nH]2)c1 [Compound 1045]")
"class 0"
>>> class("[N-]=[N+]=Nc1ccc(NCCc2cnn(CCN3C[C@H](O)[C@@H](O)[C@H](O)[C@H]3CO)c2)c([N+](=O)[O-])c1 [Compound 1191]")
"class 0"
>>> class("COc1cc(CC2CCOC2)cc(NCCCCCCN2C[C@H](O)[C@@H](O)[C@H](O)[C@H]2CO)c1 (some centres unmarked) [Compound 1141]")
"class 0"
>>> class("OC[C@@H]1[C@@H](O)[C@H](O)[C@@H](O)CN1Cc1cccc(CNc2ccc(N3CCOCC3)cc2)c1 [Compound 1081]")
"class 0"
>>> class("Nc1ccc(NCCCCCCCCN2C[C@H](O)[C@@H](O)[C@H](O)[C@H]2CO)c([N+](=O)[O-])c1Cl [Compound 1277]")
"class 1"
>>> class("OC[C@@H]1[C@@H](O)[C@H](O)[C@@H](O)CN1CCCCCCNc1ccc(-c2ncccn2)cc1C(F)(F)F [Compound 1258]")
"class 1"
>>> class("CC(C)(C)c1cc(NCCCCCCN2C[C@H](O)[C@@H](O)[C@H](O)[C@H]2CO)cc(-c2ncccn2)c1 [Compound 1151]")
"class 1"
>>> class("[N-]=[N+]=Nc1ccc(NCCc2cccc(CCN3C[C@H](O)[C@@H](O)[C@H](O)[C@H]3CO)c2)c([N+](=O)[O-])c1 [Compound 1240]")
"class 0"
>>> class("[N-]=[N+]=Nc1ccc(NCCn2cc(CCN3C[C@H](O)[C@@H](O)[C@H](O)[C@H]3CO)nn2)c([N+](=O)[O-])c1 [Compound 1272]")
"class 0"
